run-description: solvent given as SMILES
applied-conditions: in CCOC(C)=O
# note: exactly 500 nm is not below, so it is Not fulfilled; use Fulfilled for absorption maximum strictly under it

input: Is absorption maximum strictly under 500 nm for the entry "CC1=[N+]2C(=C(c3ccc(N(c4ccccc4)c4ccccc4)cc3)c3ccc(C)n3[B-]2(F)F)C=C1c1cc2n(c1)[B-](F)(F)[N+]1=CC=CC1=C2c1c(C)cc(C)cc1C" ?
output: Not fulfilled

input: Would you mind doing "CC1=NN(c2ccccc2)C(=O)/C1=C\c1cn(-c2ccccc2)nc1-c1ccc([N+](=O)[O-])cc1" as well?
output: Fulfilled

input: Quick one: "Cc1ccccc1C1=C2C=c3c(oc4c3ccc3ccccc34)=[N+]2[B-](F)(F)n2c1cc1c3ccc4ccccc4c3oc12"
output: Not fulfilled

input: Consider next the molecule COC(=O)C(Cc1ccc2oc(-c3ccc(-n4c5ccccc5c5ccccc54)cc3)nc2c1)NC(=O)OC(C)(C)C (stereo not drawn) in the same way.
output: Fulfilled

input: Would you mind doing "CCCSC1=[N+]2C(=C(c3ccccc3)c3ccc(SCCC)n3[B-]2(F)F)C=C1SC#N" as well?
output: Not fulfilled

input: Try this molecule next: "CN(C)/C=N\c1ccc2c3c(cccc13)C(=O)c1ccccc1-2"
output: Fulfilled

input: Would you kindly repeat that for "CCCCCCCCCCCCCCCCOC(=O)c1ccc(N(c2ccccc2)c2ccccc2)cc1" ?
output: Fulfilled

All figures here come from the Deep4Chem optical property database.
